Tested on: RAMOS (NHL)
procedure_details: In vitro clonogenic assay
Format: cell-based, human
applied_conditions: read-out: IC50 (colony formation)
pIC50: −log10 of the molar value.
assay_readout: pIC50

1. O=C(CNC(=O)[C@H](Cc1ccccc1)NC(=O)OCc1ccccc1)NOC(=O)c1ccccc1 ... 5.00

###

System: RS4;11 (pro-B ALL)
procedure_details: In vitro clonogenic assay
Type: cell-based, human
applied_conditions: read-out: IC50 (colony formation)
pIC50: −log10 of the molar value.
assay_readout: pIC50

1. O=C(CNC(=O)[C@H](Cc1ccccc1)NC(=O)OCc1ccccc1)NOC(=O)c1ccccc1 [CATI-1, Z-Phe-Gly-NHO-Bz] ... 4.84

###

Tested on: K562 cells
procedure_details: Flow cytometric apoptosis detection in p53 deficient cells
Type: cell-based, human
applied_conditions: K-562, p53 deficient
assay_readout: EC50

1. O=C(CNC(=O)[C@H](Cc1ccccc1)NC(=O)OCc1ccccc1)NOC(=O)c1ccccc1 [CATI-1, Z-Phe-Gly-NHO-Bz] ... ~20 µM

Cited source for all entries: patent US6605589B1
